Biological target: jack bean urease (JBU) (Canavalia ensiformis, UniProt P07374)
Construct: Urease from jack bean (Canavalia ensiformis, JBU); purchased Sigma-Aldrich (St Louis, MO, USA) type III (catalogue number not given)
Sequence (P07374 whole entry, looked up): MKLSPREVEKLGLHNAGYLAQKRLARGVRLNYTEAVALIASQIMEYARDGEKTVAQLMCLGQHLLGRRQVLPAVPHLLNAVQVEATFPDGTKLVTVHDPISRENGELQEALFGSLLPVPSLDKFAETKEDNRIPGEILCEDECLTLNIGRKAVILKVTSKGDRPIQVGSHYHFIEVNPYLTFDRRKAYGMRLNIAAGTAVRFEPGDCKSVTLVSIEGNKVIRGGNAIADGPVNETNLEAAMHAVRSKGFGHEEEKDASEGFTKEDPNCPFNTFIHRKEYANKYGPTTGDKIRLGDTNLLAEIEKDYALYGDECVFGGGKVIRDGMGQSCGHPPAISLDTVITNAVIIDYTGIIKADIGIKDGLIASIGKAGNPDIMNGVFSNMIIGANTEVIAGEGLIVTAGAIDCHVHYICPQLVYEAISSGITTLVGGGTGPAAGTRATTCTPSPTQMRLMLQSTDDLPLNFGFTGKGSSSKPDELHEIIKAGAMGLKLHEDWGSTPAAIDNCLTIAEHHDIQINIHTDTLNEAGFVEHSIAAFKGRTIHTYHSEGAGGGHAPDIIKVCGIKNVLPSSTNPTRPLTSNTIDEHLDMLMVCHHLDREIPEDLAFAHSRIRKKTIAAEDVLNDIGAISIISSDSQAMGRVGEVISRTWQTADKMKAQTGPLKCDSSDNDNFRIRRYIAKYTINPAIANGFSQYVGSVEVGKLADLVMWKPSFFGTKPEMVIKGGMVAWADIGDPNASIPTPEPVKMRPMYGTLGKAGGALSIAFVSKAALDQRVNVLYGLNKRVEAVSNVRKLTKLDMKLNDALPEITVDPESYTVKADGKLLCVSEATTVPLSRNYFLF
Experiment: Urease inhibition test (modified Berthelot method)
Format: biochemical
Details: JBU 0.25 mg/mL; 20 min preincubation 37°C, pH 7.5; read-out: IC50
MEASURED QUANTITY: pIC50
Convention used: pIC50 is expressed as -log10 of the molar concentration.

Assign pIC50 to the following record: CC(=O)NO [AHA, Acetohydroxamic acid] 4.70

---

Target: H. pylori urease (HPU) (Helicobacter pylori)
Construct: HPU was prepared as previously described; made in house
Sequence (P14916 whole entry): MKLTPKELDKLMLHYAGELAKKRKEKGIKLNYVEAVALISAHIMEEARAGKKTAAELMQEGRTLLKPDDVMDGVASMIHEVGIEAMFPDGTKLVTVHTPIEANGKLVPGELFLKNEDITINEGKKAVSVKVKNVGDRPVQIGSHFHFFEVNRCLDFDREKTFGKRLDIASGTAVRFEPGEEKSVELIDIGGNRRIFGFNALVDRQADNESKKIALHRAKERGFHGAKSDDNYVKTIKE
Sequence (P69996 whole entry): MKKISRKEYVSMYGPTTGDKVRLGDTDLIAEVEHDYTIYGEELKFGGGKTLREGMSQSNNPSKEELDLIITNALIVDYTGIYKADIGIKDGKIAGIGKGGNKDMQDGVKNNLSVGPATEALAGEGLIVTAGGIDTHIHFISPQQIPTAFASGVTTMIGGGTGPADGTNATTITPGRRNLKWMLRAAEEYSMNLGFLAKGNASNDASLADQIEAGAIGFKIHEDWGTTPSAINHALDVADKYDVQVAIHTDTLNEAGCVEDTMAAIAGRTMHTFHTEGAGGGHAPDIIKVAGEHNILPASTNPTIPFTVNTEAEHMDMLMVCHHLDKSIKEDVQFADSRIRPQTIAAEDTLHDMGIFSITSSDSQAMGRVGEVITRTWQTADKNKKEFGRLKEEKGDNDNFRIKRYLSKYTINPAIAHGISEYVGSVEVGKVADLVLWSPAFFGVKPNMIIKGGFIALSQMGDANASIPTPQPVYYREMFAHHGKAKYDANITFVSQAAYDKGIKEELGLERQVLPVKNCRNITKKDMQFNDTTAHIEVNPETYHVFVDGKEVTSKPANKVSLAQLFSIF
Assay: Urease inhibition test (modified Berthelot method)
Type: biochemical
Settings: HPU 0.25 mg/mL; 20 min preincubation 37°C, pH 7.5; read-out: IC50
MEASURED QUANTITY: IC50 (µM)
Form entry: value (µM) — number only.

Return IC50 (reported value) for this compound: CC(=O)NO [AHA, Acetohydroxamic acid] 70

---

Biological target: H. pylori urease (HPU) (Helicobacter pylori)
Construct: HPU was prepared as previously described; made in house
Assay: Urease inhibition test (modified Berthelot method)
Assay type: biochemical
MEASURED QUANTITY: IC50 (µM)
The reply should be a number in µM, with the unit left off.

Give the reported value of IC50 for this record: COc1cc2c(cc1OC)-c1cc3ccc(OC)c(OC)c3c[n+]1CC2 [Pal, Palmatine] 530

Hey, just so you know, these numbers are from paper PMC5207512.
